SYSTEM_NAME: Delta-type opioid receptor (Homo sapiens, UniProt P41143)
Sequence (P41143 whole entry): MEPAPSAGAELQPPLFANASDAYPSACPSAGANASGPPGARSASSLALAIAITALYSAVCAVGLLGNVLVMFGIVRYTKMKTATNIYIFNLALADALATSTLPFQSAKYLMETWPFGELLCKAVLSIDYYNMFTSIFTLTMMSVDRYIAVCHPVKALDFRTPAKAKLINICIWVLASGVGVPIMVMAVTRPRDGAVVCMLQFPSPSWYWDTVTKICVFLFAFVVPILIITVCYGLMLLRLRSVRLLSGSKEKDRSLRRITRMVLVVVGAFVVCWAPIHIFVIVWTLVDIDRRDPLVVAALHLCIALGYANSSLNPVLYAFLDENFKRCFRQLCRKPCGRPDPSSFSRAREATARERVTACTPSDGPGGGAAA
EXPERIMENT_NOTES: Displacement of [3H]DPDPE from delta opioid receptor (unknown origin) transfected into HEK293 cells at 10 uM by microplate scintillation counting
Format: cell-based
Below, each entry is listed with its recorded Activity.
MEASUREMENT_KIND: Activity (%)

1. COc1ccc(-c2cc(=O)c3c(O)c(OC)c(O)cc3o2)cc1 [PECTOLINARIGENIN] = 79.9
2. COc1ccc(-c2cc(=O)c3c(O)c(OC)c(OC)cc3o2)cc1 [SALVIGENIN] = 31.6
3. COc1ccc(-c2cc(=O)c3c(O)c(OC)c(OC)cc3o2)cc1OC = 86
4. COc1ccc(-c2cc(=O)c3c(O)c(OC)c(O)cc3o2)cc1OC = 19.9

====

SYSTEM_NAME: Cannabinoid receptor 1 (Homo sapiens)
EXPERIMENT_NOTES: Displacement of [3H]-CP55940 from human CB1 receptor transfected into HEK293 cells at 10 uM by microplate scintillation counting
Format: cell-based
MEASUREMENT_KIND: Activity (%)

1. COc1ccc(-c2cc(=O)c3c(O)c(OC)c(OC)cc3o2)cc1 = 1.7
2. COc1ccc(-c2cc(=O)c3c(O)c(OC)c(O)cc3o2)cc1 = 19.3
3. COc1ccc(-c2cc(=O)c3c(O)c(OC)c(O)cc3o2)cc1OC = 0.3
4. COc1ccc(-c2cc(=O)c3c(O)c(OC)c(OC)cc3o2)cc1OC = 3

====

SYSTEM_NAME: Cannabinoid receptor 2 (Homo sapiens) (UniProt P34972)
Sequence (P34972 whole entry): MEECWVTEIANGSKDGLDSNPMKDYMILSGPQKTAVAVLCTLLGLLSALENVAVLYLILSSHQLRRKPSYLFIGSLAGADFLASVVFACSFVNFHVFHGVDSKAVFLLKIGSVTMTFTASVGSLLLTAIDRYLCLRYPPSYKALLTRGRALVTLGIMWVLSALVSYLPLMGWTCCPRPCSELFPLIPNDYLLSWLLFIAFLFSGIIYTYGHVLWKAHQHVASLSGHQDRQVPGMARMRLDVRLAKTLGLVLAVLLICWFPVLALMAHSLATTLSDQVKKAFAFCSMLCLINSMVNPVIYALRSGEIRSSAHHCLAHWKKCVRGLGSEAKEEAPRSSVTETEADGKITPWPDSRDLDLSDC
EXPERIMENT_NOTES: Displacement of [3H]-CP55940 from human CB2 receptor transfected into HEK293 cells at 10 uM by microplate scintillation counting
Type: cell-based
MEASUREMENT_KIND: Activity (%)

1) COc1ccc(-c2cc(=O)c3c(O)c(OC)c(O)cc3o2)cc1 = 13.5
2) COc1ccc(-c2cc(=O)c3c(O)c(OC)c(O)cc3o2)cc1OC = 12.5
3) COc1ccc(-c2cc(=O)c3c(O)c(OC)c(OC)cc3o2)cc1 = 8.3
4) COc1ccc(-c2cc(=O)c3c(O)c(OC)c(OC)cc3o2)cc1OC = 4.2
